These data points were gathered from PubChem BioAssay (EPA / NIEHS).

- System: Sodium/Iodide Symporter (NIS), SLC5A5 (gene 6528)
- TEST_SUMMARY: CPHEA_Stoker_NIS_Inhibition_RAIU: CPHEA's Radioactive Iodide Uptake (RAIU) Assay for Sodium/Iodide Symporter (NIS) Inhibition, Stoker and Laws Labs (AID 2283841)
Inconclusive results are not listed. The source made the active and inactive calls. How the source made its calls: active means hit-call score of the fitted dose curve at least 0.9, where 1 is the maximum; inconclusive means response in the unintended direction; inactive means score below 0.9.
Reply using exactly one outcome from Yes (active), No (inactive)

Sample answers from the record:
CCCN(CCC)c1c([N+](=O)[O-])cc(C(F)(F)F)c(N)c1[N+](=O)[O-] | Yes
CCCCOC(=O)[C@@H](C)Oc1ccc(Oc2ccc(C(F)(F)F)cn2)cc1 | No

Task item: What is the recorded call for this compound in the test? CSC(=O)c1cccc2nnsc12
Reply: No

Task item: What would you report for N#CSCSc1nc2ccccc2s1 ?
Reply: Yes

* * *

- TEST_SUMMARY: APR_HepG2_p53Act_24hr: Apredica 24-hour HepG2 Assay for p53 Activation (AID 2282913);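 further: p53 protein immunofluorescence averaged per cell in HepG2 with Hoechst nuclei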
- DETAILS: high-content imaging, actives raise or lower the signal
The source made the active and inactive calls. The calls were made as follows: active = hit-call score of the fitted dose curve at least 0.9, where 1 is the maximum; inactive = score below 0.9.
Reply using exactly one outcome from True for active, False for inactive

Task item: What is the recorded call for this compound in the test? CCN(Cc1c(F)cccc1Cl)c1c([N+](=O)[O-])cc(C(F)(F)F)cc1[N+](=O)[O-]
Reply: False

Task item: What would you report for CC(C)CCCCCCc1ccc(O)cc1 ?
Reply: False

Task item: What would you report for CCCCOC(=O)C(C)Oc1ccc(Oc2ccc(C(F)(F)F)cn2)cc1 (stereo not given) ?
Reply: False

Task item: What would you report for CCOC(=O)C(C)Oc1ccc(Oc2nc3ccc(Cl)cc3o2)cc1 (stereo not given) ?
Reply: False

* * *

- Read-out: solute carrier (SLCO1B1), SLCO1B1 (gene 10599)
- TEST_SUMMARY: LTEA_HepaRG_SLCO1B1: Life Technologies and Expression Analysis (LTEA) Assay for solute carrier (SLCO1B1) using HepaRG (AID 2283530)
- DETAILS: mRNA level, 48 h; actives raise or lower the signal
The source made the active and inactive calls. Rule for the calls: active = hit-call score of the fitted dose curve at least 0.9, where 1 is the maximum; inactive = score below 0.9.
Reply using exactly one outcome from active, inactive

O=C(c1ccccc1)C1CCCCC1 | inactive
CSC(=O)c1cccc2nnsc12 | inactive
CC(=O)[C@H]1CC[C@H]2[C@@H]3CCC4=CC(=O)CC[C@]4(C)[C@H]3CC[C@]12C | active
CCCCOC(=O)C(C)Oc1ccc(Oc2ccc(C(F)(F)F)cn2)cc1 (stereo not drawn) | inactive
C#C[C@]1(O)CC[C@H]2[C@@H]3CCC4=CC(=O)CC[C@@H]4[C@H]3CC[C@@]21CC | active

Task item: What is the recorded call for this compound in the test? O=C(O)C1(C(=O)Nc2ccc(Cl)cc2Cl)CC1
Reply: active

Task item: What would you report for c1ccc(Nc2ccccc2)cc1 ?
Reply: inactive

Task item: What would you report for CCCOC(=O)NCCCN(C)C ?
Reply: inactive

* * *

- TEST_SUMMARY: APR_HepG2_CellLoss_1hr: Apredica 1-hour HepG2 Assay for Cell Loss (AID 2282668);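 further: curves fitted both ways against DMSO so gain or loss of cells counts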
- DETAILS: high-content imaging
Calls of active or inactive are those of the source. The calls were made as follows: active = hit-call score of the fitted dose curve at least 0.9, where 1 is the maximum; inactive = score below 0.9.
Reply using exactly one outcome from active, inactive

Task item: What is the recorded call for this compound in the test? COC(=O)c1ccccc1C(=O)O
Reply: inactive

Task item: What would you report for CCCN(CCC)c1c([N+](=O)[O-])cc(C(F)(F)F)c(N)c1[N+](=O)[O-] ?
Reply: inactive

Task item: What would you report for OB(O)O ?
Reply: inactive

Task item: What would you report for CCCCOC(=O)C(C)Oc1ccc(Oc2ccc(C(F)(F)F)cn2)cc1 (stereo not given) ?
Reply: inactive

Task item: What would you report for C=CCOC(Cn1ccnc1)c1ccc(Cl)cc1Cl (stereo not given) ?
Reply: inactive

Task item: What would you report for CCN(Cc1c(F)cccc1Cl)c1c([N+](=O)[O-])cc(C(F)(F)F)cc1[N+](=O)[O-] ?
Reply: inactive

Task item: What would you report for COC(=O)c1ccc(I)cc1S(=O)(=O)NC(=O)Nc1nc(C)nc(OC)n1 ?
Reply: inactive

Task item: What would you report for CCOC(=O)[C@H](C)Oc1ccc(Oc2nc3ccc(Cl)cc3o2)cc1 ?
Reply: inactive

Task item: What would you report for COCCO ?
Reply: inactive

* * *

- TEST_SYSTEM: Nuclear receptor subfamily 4 group A member 2 (Homo sapiens) (UniProt P43354)
- Sequence (P43354 whole entry, looked up): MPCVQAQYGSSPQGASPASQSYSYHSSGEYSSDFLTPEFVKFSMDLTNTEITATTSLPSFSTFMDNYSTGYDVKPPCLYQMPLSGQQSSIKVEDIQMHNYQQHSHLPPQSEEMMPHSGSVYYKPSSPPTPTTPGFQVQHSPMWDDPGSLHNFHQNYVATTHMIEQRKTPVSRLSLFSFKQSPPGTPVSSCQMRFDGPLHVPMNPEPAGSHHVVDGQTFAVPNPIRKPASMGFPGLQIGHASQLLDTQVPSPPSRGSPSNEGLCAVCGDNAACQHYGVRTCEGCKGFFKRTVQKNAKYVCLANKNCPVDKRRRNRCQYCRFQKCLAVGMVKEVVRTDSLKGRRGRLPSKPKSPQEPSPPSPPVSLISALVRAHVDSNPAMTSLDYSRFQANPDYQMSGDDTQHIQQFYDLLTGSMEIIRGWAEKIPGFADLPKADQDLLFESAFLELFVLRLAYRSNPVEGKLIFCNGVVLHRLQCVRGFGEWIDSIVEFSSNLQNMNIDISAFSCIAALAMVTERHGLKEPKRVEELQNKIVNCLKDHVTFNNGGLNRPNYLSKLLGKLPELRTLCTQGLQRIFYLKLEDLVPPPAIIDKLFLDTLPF
- TEST_SUMMARY: ATG_NURR1_TRANS: Attagene TRANS-FACTORIAL HepG2 Assay for human Nuclear Receptor Related Protein 1 (NURR1) (AID 2282985)
- DETAILS: HepG2 Attagene TRANS reporter, mRNA readout
Inconclusive results are not listed. The source made the active and inactive calls. The calls were made as follows: active = hit-call score of the fitted dose curve at least 0.9, where 1 is the maximum; inconclusive = response in the unintended direction; inactive = score below 0.9.
ENDPOINT: outcome

Guide cases for outcome, answers given:
CCSC(=O)N(CC(C)C)CC(C)C | inactive
C[C@]12C[C@H](O)[C@H]3[C@@H](CCC4=CC(=O)CC[C@@]43C)[C@@H]1CC[C@@H]2C(=O)CO | inactive
CCCCOCCOCCOCc1cc2c(cc1CCC)OCO2 | inactive
CCC(O)=C1C(=O)CC(C(=O)O)CC1=O (stereo unspecified) | inactive
CCN(Cc1c(F)cccc1Cl)c1c([N+](=O)[O-])cc(C(F)(F)F)cc1[N+](=O)[O-] | inactive
COC(=O)c1cccc(C)c1S(=O)(=O)NC(=O)Nc1nc(OCC(F)(F)F)nc(N(C)C)n1 | inactive

Task item: Data request, read-out outcome, for CCC(C)OC(=O)N1CCCCC1CCO (stereo unspecified)
Reply: inactive

Task item: What would you report for COC(=O)c1ccccc1S(=O)(=O)NC(=O)Nc1nc(OC(F)F)cc(OC(F)F)n1 ?
Reply: inactive

Task item: What would you report for c1ccc2[nH]c(-c3cscn3)nc2c1 ?
Reply: inactive

Task item: What would you report for O=C(c1ccccc1)C1CCCCC1 ?
Reply: inactive

Task item: What would you report for CCCCOC(=O)[C@@H](C)Oc1ccc(Oc2ccc(C(F)(F)F)cn2)cc1 ?
Reply: inactive

* * *

- TEST_SUMMARY: ACEA_ER_80hr: ACEA Biosciences xCELLigence Real-Time Cell Analysis on Estrogen Receptor Agonism for Proliferation (AID 2282667)
- DETAILS: T47D proliferation, impedance (xCELLigence), 80 h
Records with an inconclusive call do not appear. Calls of active or inactive are those of the source. How the source made its calls: active means hit-call score of the fitted dose curve at least 0.9, where 1 is the maximum; inconclusive means response in the unintended direction; inactive means score below 0.9.
Reply using exactly one outcome from active, inactive

Sample answers from the record:
CCOC(=O)C(C)Oc1ccc(Oc2cnc3cc(Cl)ccc3n2)cc1 (centres undefined) | inactive
OB(O)O | inactive
CCCCN(CCCC)C(=S)S | active
CCCCOC(=O)C(C)Oc1ccc(Oc2ccc(C(F)(F)F)cn2)cc1 (centres undefined) | active
CCCN(CCC)C(=O)SCC | inactive
CCN(Cc1c(F)cccc1Cl)c1c([N+](=O)[O-])cc(C(F)(F)F)cc1[N+](=O)[O-] | active

Task item: What is the recorded call for this compound in the test? CCCCOC(=O)[C@@H](C)Oc1ccc(Oc2ccc(C(F)(F)F)cn2)cc1
Reply: active

Task item: What would you report for CC1(C)C(C=C(Cl)Cl)C1C(=O)OCc1cccc(Oc2ccccc2)c1 (centres undefined) ?
Reply: inactive

Task item: What would you report for CC(C)CCCCCCc1ccc(O)cc1 ?
Reply: active

* * *

- TEST_SUMMARY: Tanguay_ZF_120hpf_AXIS_legacy: (Legacy) Oregon State University Tanguay Lab 120 Hour Post-fertilization zebrafish Assay for Body Axis Malformation (AID 2283635)
Inconclusive results are not listed. Calls of active or inactive are those of the source. How the source made its calls: active means hit-call score of the fitted dose curve at least 0.9, where 1 is the maximum; inconclusive means response in the unintended direction; inactive means score below 0.9.
Reply using exactly one outcome from active, inactive

COC(=O)c1ccccc1C(=O)O | inactive
C#C[C@]1(O)CC[C@H]2[C@@H]3CCC4=CC(=O)CC[C@@H]4[C@H]3CC[C@@]21CC | inactive
CCOC(=O)C(C)Oc1ccc(Oc2nc3ccc(Cl)cc3o2)cc1 (stereo not drawn) | inactive
CCCN(CCC)c1c([N+](=O)[O-])cc(C(F)(F)F)c(N)c1[N+](=O)[O-] | inactive
O=C(c1ccccc1)C1CCCCC1 | inactive

Task item: What is the recorded call for this compound in the test? CCCN(CCC)C(=O)SCC
Reply: inactive

Task item: What would you report for C=CCOC(Cn1ccnc1)c1ccc(Cl)cc1Cl (stereo not drawn) ?
Reply: inactive

Task item: What would you report for C#CCOC(=O)[C@@H](C)Oc1ccc(Oc2ncc(Cl)cc2F)cc1 ?
Reply: inactive

Task item: What would you report for CCOC(=O)C(C)Oc1ccc(Oc2cnc3cc(Cl)ccc3n2)cc1 (stereo not drawn) ?
Reply: inactive

Task item: What would you report for CCN(Cc1c(F)cccc1Cl)c1c([N+](=O)[O-])cc(C(F)(F)F)cc1[N+](=O)[O-] ?
Reply: inactive

Task item: What would you report for CCCCC(CC)CN1C(=O)C2C3C=CC(C3)C2C1=O (stereo not drawn) ?
Reply: inactive

Task item: What would you report for CCCCC(CC)COC(=O)c1ccccc1C(=O)O (stereo not drawn) ?
Reply: inactive
